Tested on: Aerobactin synthetase IucA (Klebsiella pneumoniae)
Test: inhibition of K. pneumoniae IucA enzyme – biochemical, Tocris library, absorbance (AID 1345561);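 further: 100% = enzyme without compound and 0% = no enzyme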
Settings: purified IucA enzyme assay, absorbance (OD) read-out; hits give low values;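 tested at 8 µM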
Assay Readout: remaining activity (%)
Just the number please, in %, no unit attached.

Exercise: Write down remaining activity measured for item `Cc1ccc(NC(=O)C(C)C)cc1C1CCN(Cc2ccc(Oc3ccc(F)c(F)c3)cc2)CC1`
Key: 107

Exercise: Report remaining activity for `CNC(=O)[C@@H](Cc1ccccc1)N(C)C(=O)[C@@H](Cc1ccc2ccccc2c1)N(C)C(=O)/C=C/CC(C)(C)N`
Key: 99.8

Exercise: Give remaining activity for the following compound: NC(Cn1ccc(=O)n(Cc2ccccc2C(=O)O)c1=O)C(=O)O (configuration not stated)
Key: 98.2

Exercise: Respond only with remaining activity recorded for `O=c1[nH]c2cc(Cl)ccc2c(O)c1-c1cccc(Oc2ccccc2)c1`
Key: 103

Exercise: Note down remaining activity recorded for `O=Nc1ccc(O)c2ncccc12`
Key: 118

Exercise: # return recorded remaining activity for entry `O=c1[nH]cnc2ccccc12`
Key: 102

Exercise: Give the reported remaining activity for this compound. `N[C@H](C(=O)O)c1ccc(C(=O)O)c(C(=O)O)c1`
Key: 126

Sourced from PubChem BioAssay
